Origin of the recorded values: patent US20250135039A1

System: U251 human glioblastoma cell line
assay.name: in vitro FM-HCR assay of MGMT activity (mPlum O^6MeG reporter plasmid)
Format: cell-based
measurement.setup: MGMT activity (a.u.) in O^6BG divided by DMSO x 100; higher values indicate resistance
Relative MGMT activity (%) reference
The reply should be a number in %, with the unit left off.

See these solved cases before continuing.
P140Q: MGMT polypeptide with mutation P140Q (protein) MDKDCEMKRTTLDSPLGKLELSGCEQGLHEIKLLGKGTSAADAVEVPAPAAVLGGPEPLMQCTAWLNAYFHQPEAIEEFPVPALHHPVFQQESFTRQVLWKLLKVVKFGEVISYQQLAALAGNPKAARAVGGAMRGNPVQILIPCHRVVCSSGAVGNYSGGLAVKEWLLAHEGHRLGKPGLGGSSGLAGAWLKGAGATSGSPPAGRN : 31.3
G160D: MGMT polypeptide with mutation G160D (protein) MDKDCEMKRTTLDSPLGKLELSGCEQGLHEIKLLGKGTSAADAVEVPAPAAVLGGPEPLMQCTAWLNAYFHQPEAIEEFPVPALHHPVFQQESFTRQVLWKLLKVVKFGEVISYQQLAALAGNPKAARAVGGAMRGNPVPILIPCHRVVCSSGAVGNYSDGLAVKEWLLAHEGHRLGKPGLGGSSGLAGAWLKGAGATSGSPPAGRN : 31.6

Next molecule, Relative MGMT activity (%) to be filled in.
Looking for the measured Relative MGMT activity (%) of G156P: MGMT polypeptide with mutation G156P (protein) MDKDCEMKRTTLDSPLGKLELSGCEQGLHEIKLLGKGTSAADAVEVPAPAAVLGGPEPLMQCTAWLNAYFHQPEAIEEFPVPALHHPVFQQESFTRQVLWKLLKVVKFGEVISYQQLAALAGNPKAARAVGGAMRGNPVPILIPCHRVVCSSGAVPNYSGGLAVKEWLLAHEGHRLGKPGLGGSSGLAGAWLKGAGATSGSPPAGRN , can you help?
86.6
